# STUDY_SYSTEM: 19 enzymes: Type I and Type II PRMTs and lysine methyltransferases (KMTs)
# EXPERIMENT: methyltransferase selectivity panel
# ASSAY_SETUP: any of the 19 enzymes
# Text: FIG. 31: Phylogenetic tree highlighting the methyltransferases tested in the selectivity panel. […] PRMT9 is shown for relationship purposes only within the family tree and was not evaluated in the panel. Figure adapted from Richon V M. et al. PRMT9/FBXO11, which is the other Type II PRMT and the only PRMT to lack the THW loop, was not included due to the lack of a functional enzyme assay.
pIC50: −log10 of the molar value.
VALUE_TYPE: pIC50

Query `CC(=O)N1CCC(Nc2cc(C(=O)NC[C@H](O)CN3CCc4ccccc4C3)ncn2)CC1` yields pIC50 of < 4.40
